# protocol-details: Terminal half life in Sprague-Dawley rat at 1 mg/kg, iv or 5 mg/kg, po
# Type: ADME, organism-based
# assay-conditions: in vivo, read-out: beta t1/2 (converted)
quantity-kind: half-life (h)
Give the number; h is assumed, so skip it.

{"smiles-string": "C[C@@H]1OCC2(CCN(c3nc4[nH]nc(-c5ccnc(NC6CC6)c5Cl)c4c(=O)n3C)CC2)[C@@H]1N", "half-life [h]": 2.7}

Please examine the following record next.
Param item = "C[C@@H]1OCC2(CCN(c3nc4[nH]nc(-c5cccc(Cl)c5Cl)c4c(=O)n3C)CC2)[C@@H]1N" ; retrieve measured half-life.
4.6

Every entry's value here was drawn from ChEMBL document CHEMBL4411333.
